# assay: Dog cross-over PK study
# Format: in vivo
# stated conditions: male, dog, plasma, po, 10 mg/kg, male dogs, fasted, cross-over, read-out: Tmax
parameter: Tmax
Answer format: number, then unit.

>>> measured_result("Cc1cc(NC(=O)c2ccc(NS(=O)(=O)CCO)cc2N2CCC3(CC2)CC3)nc(N2CCC(F)(F)CC2)n1 [Anhydrous Compound A Form 3]")
"4.7 h"

Ask: Can you look up the measured Tmax of Cc1cc(NC(=O)c2ccc(NS(=O)(=O)CCO)cc2N2CCC3(CC2)CC3)nc(N2CCC(F)(F)CC2)n1.Cl [Compound A-HCl Form 1] for me?
Reply: 6 h

* * *

# assay: pKa of ionizable groups
# Assay type: physicochemical
# stated conditions: read-out: weakly basic pKa
parameter: pKa

Ask: Given the entry `Cc1cc(NC(=O)c2ccc(NS(=O)(=O)CCO)cc2N2CCC3(CC2)CC3)nc(N2CCC(F)(F)CC2)n1` , report its measured pKa.
Reply: 3.9

* * *

# assay: pKa of ionizable groups
# Format: physicochemical
# stated conditions: read-out: weakly acidic pKa
parameter: pKa

Ask: Look at this compound and give its reported pKa. Cc1cc(NC(=O)c2ccc(NS(=O)(=O)CCO)cc2N2CCC3(CC2)CC3)nc(N2CCC(F)(F)CC2)n1 [Compound A]
Reply: 7.3

* * *

# assay: Dog cross-over PK study
# Format: in vivo
# stated conditions: male, dog, plasma, po, 10 mg/kg, male dogs, fasted, cross-over
parameter: AUC(0-t) (µM·h)
One number for each entry, in µM·h.

Ask: What value of AUC(0-t) has been reported for the following compound? Cc1cc(NC(=O)c2ccc(NS(=O)(=O)CCO)cc2N2CCC3(CC2)CC3)nc(N2CCC(F)(F)CC2)n1.Cl [Compound A-HCl Form 1]
Reply: 181

* * *

# assay: Dog cross-over PK study
# Format: in vivo
# stated conditions: male, dog, plasma, po, 10 mg/kg, male dogs, fasted, cross-over
# Method: A total of 3 male dogs were initially assigned to study. All animals were fasted for at least eight hours prior to dosing and through the first four hours of blood sample collection (food was returned within 30 minutes following the collection of the last blood sample at the 4 hour collection interval, if applicable). Each animal receiver an oral gavage dose (PO) of the appropriate test article solution containing Compound A as outlined in the following study design table. […]
parameter: Cmax (µM)
Answers are plain numbers, in µM.

Ask: Quick one: Cmax for Cc1cc(NC(=O)c2ccc(NS(=O)(=O)CCO)cc2N2CCC3(CC2)CC3)nc(N2CCC(F)(F)CC2)n1.Cl [Compound A-HCl Form 1] ?
Reply: 4.7

* * *

# assay: Dog cross-over PK study
# Assay type: in vivo
# stated conditions: male dogs, fasted, PO 10 mg/kg, cross-over; listed as Amorphous Cmp A, 10 mg/kg
parameter: Cmax (µM)
Answers are plain numbers, in µM.

Ask: What Cmax value was documented for this molecule, `Cc1cc(NC(=O)c2ccc(NS(=O)(=O)CCO)cc2N2CCC3(CC2)CC3)nc(N2CCC(F)(F)CC2)n1` ?
Reply: 6.9

* * *

# assay: Solubility in crystallization solvent 80/20 acetone/water
# Type: physicochemical
# stated conditions: organic solvent or mixture; 80/20 (v/v) acetone/water, crystallization and slurry aging solvent
parameter: solubility

Hi! Can you tell me solubility for each of these compounds?
1. Cc1cc(NC(=O)c2ccc(NS(=O)(=O)CCO)cc2N2CCC3(CC2)CC3)nc(N2CCC(F)(F)CC2)n1
2. Cc1cc(NC(=O)c2ccc(NS(=O)(=O)CCO)cc2N2CCC3(CC2)CC3)nc(N2CCC(F)(F)CC2)n1.Cl [Compound A-HCl Form 1]

Reply:
["~18 mg/mL", "~8 mg/mL"]
